The measured values listed here are drawn from the Immune Epitope Database (IEDB).

# tested on: HLA-A*68:02
# experiment: IEDB peptide-MHC binding, purified MHC/competitive/radioactivity; bounds were set here for any values at or beyond the usual limits of such assays
# test context: source organism: Mammarenavirus whitewaterense
pIC50: −log10 of the molar value.
// NO strictly below 7 in pIC50; YES otherwise

• KTVAGSFAS = NO
• CNYTKFWYV = NO
• LDFAKVASV = NO
• FSAVISGSV = YES
• YCNYTKFWYV = NO
• VCFWSTLFYV = NO
• LNASYITPYV = YES
• TVIKTLLEV = YES

====

# tested on: HLA-A*02:06
# experiment: IEDB peptide-MHC binding, purified MHC/competitive/radioactivity; bounds were set here for any values at or beyond the usual limits of such assays
# test context: source organism: SARS-CoV1
readout kind: log10 of IC50 (log10 of the value in nM)

- LIDFYLCFL: 1.04
- LIVAALVFL: 1.04
- LLDDFVEII: 2.20
- LLFLVLIML: 2.76
- LMLKATLLCV: 1.80
- VLAWLYAAV: 0.94
- ITAIYVFCI: 2.12
- FVDEFYAYL: -0.44
- YLMCLSPLMA: 0.11
- RILGAGCFV: 1.58
- NLWNTFTRL: 2.22
- HAFLCLFLL: 0.08
- ALVCYIVMPV: 0.46
- FLAFLLFLVL: 3.30
- LVIGVAFLAV: 0.41
- ALLADKFPV: 1.36
- ALVLLILMTA: 1.79
- KLMGHFSWWT: 2.00
- MLFTKFFYL: 0.15
- LVTSFLLMIV: 2.21
- ALDGVLSTFV: 2.15

====

# tested on: HLA-A*68:02
# experiment: IEDB peptide-MHC binding, cellular MHC/competitive/fluorescence; bounds were set here for any values at or beyond the usual limits of such assays
# test context: source organism: Vaccinia virus WR
Threshold-based label: IC50 under 50 µM gives yes, IC50 not under 50 µM gives no.

* VQFSILNNPV | yes
* PTRTWKVLSI | yes
* STQQNKLVI | yes
* AMHDKKIDIL | no
* EMQLKIDKLT | yes
* LVQYRILPM | no
* GVLPEETNI | yes
* IVSHLRASTT | no
* PIPYSRVNHA | yes
* NQLDSSNKSM | no
* VTKRDESSI | yes
* KTEHCDDFMT | no
* VIPDELIDV | no
* IAMLKSKNI | yes
* LTPFEKEFT | no
* CALVSDCAST | no
* VLKAMHDKKI | no
* MQLKIDKLT | no
* AIRAGYSIV | yes
* ALMTLDDLAI | yes

====

# tested on: HLA-A*68:02
# experiment: IEDB peptide-MHC binding, purified MHC/competitive/radioactivity; bounds were set here for any values at or beyond the usual limits of such assays
# test context: source organism: SARS-CoV1
pIC50: −log10 of the molar value.
readout kind: pIC50

• MLLTFLTSLL = 6.52
• LLLWISVKV = 5.56
• FLLVTLAIL = 5.72
• ALIARCWYL = 5.90
• WLMWFIISIV = 5.54
• LMSFTILCLV = 7.40
• TMADLVYAL = 7.70
• FLNRFTTTL = 6.54
• MQVFFGYFA = 7.92
• GLIAIVMVTI = 5.78
• WLVIGVAFL = 6.90

====

# tested on: HLA-A*02:06
# experiment: IEDB peptide-MHC binding, purified MHC/competitive/radioactivity; bounds were set here for any values at or beyond the usual limits of such assays
# test context: source organism: Vaccinia virus WR
Entries and their log10 of IC50 values follow.
readout kind: log10 of IC50 (log10 of the value in nM)

• KTIISEEYL = 2.18
• FLTGTFVTA = 0.32
• TIDKSSPLYI = 3.26
• KTIAVSVYGA = 2.63
• YTFAISYCRA = 1.57
• FIMRNFLRSI = -0.35
• FLPQIGGEAI = 1.00
• FVMCLEAKT = 2.99
• DIPTFNSLNT = 1.65
• SINNQLMYDI = 3.68
• YLYTEYFLFL = -2.15
• YVILKDPRI = 1.08
• YVVIVENDNV = 1.78
• SVKNLILNFL = 2.74
• NVSRVVECL = 3.01
• MMNITRLEVI = 2.13
• WIKDIMTST = 2.13
• FVATFRDMLL = 0.64
• ETLPELNLSL = 2.13
• DVFRPLFDFV = 2.37
• MAAAKTPVI = 2.83

====

# tested on: HLA-A*68:02
# experiment: IEDB peptide-MHC binding, cellular MHC/competitive/fluorescence; bounds were set here for any values at or beyond the usual limits of such assays
# test context: source organism: Vaccinia virus WR
Threshold-based label: IC50 under 20 µM gives criterion met, IC50 not under 20 µM gives criterion not met.

* RLRQDTEDIV | criterion not met
* RLLKNMKQCT | criterion not met
* AINKCVDIFT | criterion not met
* IAEYIAGLKI | criterion met
* VASDVCKKNL | criterion not met
* SIKMIYDLNA | criterion met
* HLTENNLYI | criterion met
* VLEKKVCAIT | criterion not met
* GILIYDDNI | criterion not met
* LISSDGARVI | criterion met
* LAELLEMKYA | criterion not met

====

# tested on: HLA-A*02:01
# experiment: IEDB peptide-MHC binding, cellular MHC/competitive/fluorescence; bounds were set here for any values at or beyond the usual limits of such assays
# test context: source organism: Influenza A virus
pIC50: −log10 of the molar value.
readout kind: pIC50

- ATKRIRMA: 4.37
- AAGAAVKGV: 4.25
- FNPMIVELA: 4.60
- HANNSTDTV: 4.62
- SAFDERRNKYL: 4.62
- FLKVPAQNA: 4.95
- TLNTMTKDA: 4.99
- NVMGMIGI: 4.84
- ILLRAFTEEGA: 4.92
- ATAGLTHMMI: 4.92
- RTLFQQMRDVL: 4.86
- ITFMQALQLL: 5.11
- CAAMDDFQL: 4.96
- GLIYNRMGA: 4.78
- NTVSSFQV: 4.28
- NVTVTHSV: 4.65
- NLPFDKTTIMA: 4.60
- NTTIEKEI: 4.30
- RLTILGKDA: 4.96

====

# tested on: HLA-A*02:01
# experiment: IEDB peptide-MHC binding, cellular MHC/competitive/fluorescence; bounds were set here for any values at or beyond the usual limits of such assays
# test context: source organism: Vaccinia virus WR
pIC50: −log10 of the molar value.
Entries and their pIC50 values follow.
readout kind: pIC50

• PANINDKQIM = 4.49
• GIAHLLEHLL = 5.13
• VVRRTMLSDI = 5.07
• NTGMGMYYPT = 4.54
• NTFPNITLKI = 5.00
• DVEKEKFVAT = 4.52
• AIKCEGLDV = 4.87
• NVKSKLLWFL = 4.48
• ILKDPRIASI = 5.30
• LLKETIQKDI = 5.04
• PVTEDDYKFL = 4.57
• VIPFDDIVRT = 4.61
• RISSSLDQT = 4.20
• TQVKELGIA = 4.91
• GTGILFMEM = 5.20
• VARRKDQTA = 4.42

====

# tested on: HLA-A*02:01
# experiment: IEDB peptide-MHC binding, purified MHC/competitive/radioactivity; bounds were set here for any values at or beyond the usual limits of such assays
# test context: source organism: Vaccinia virus WR
pIC50: −log10 of the molar value.
// rule not met strictly below 7 in pIC50; rule met otherwise

- GLSASDVDM: rule not met
- YVGDTSMMVI: rule not met
- IMECSRMLDT: rule not met
- FLSRVFFCV: rule met
- FQQPQFQYL: rule met
- TTTSEVVDML: rule not met
- SVEKIADDRI: rule not met
- TMLMFIFTGI: rule met
- FTLIDIWFL: rule met
- TILDDNLYKV: rule not met
- KLFFAKCLV: rule met
- RVIGLCIRI: rule met
- FLEGALIANI: rule met
- TLRHIIGLLM: rule not met
- LLLLLFHSYA: rule met
- RIITILQDIV: rule not met
- NVFKYLTSV: rule met

====

# tested on: HLA-A*68:02
# experiment: IEDB peptide-MHC binding, purified MHC/competitive/radioactivity; bounds were set here for any values at or beyond the usual limits of such assays
# test context: source organism: Mammarenavirus choriomeningitidis
Entries and their IC50 values follow.
readout kind: IC50 (µM)

- FSTSAYLISI: 0.0014
- AVYNFATCGI: 0.013
- ALMDLLMFS: 2.99
- YCNYSKFWYL: 0.925
- LNMFVSDQV: 0.007
- FSLGAAVKA: 1.78
- NSLILLECFV: 0.043
- LMDCIIFES: 0.425
- ALMDCIIFES: 0.507
- RNHLRDLMGV: 2.82
- SCDDVVFGI: 0.306
- LNQTVYSLV: 0.262
- HNASDFYGL: 0.147
- MSCDDVVFGI: 0.054
